For each of the molecules below, state its GI50.
test system: SK-OV-3; test: NCI tumour cell line growth inhibition, 48 h
Activity calls are given as the source filed them. No stated cut-off is given here; in the data, active = GI50 up to about 1.1 µM and inactive = higher.

Sure, the documented GI50 for `CC1(C)CC(C#Cc2ccccc2)CC(C)(C)N1O` is 27.1 µM (inactive)

Sure, the documented GI50 for NC(=O)c1[nH]nc(C2OC(CO)C(O)C2O)c1O (stereo not given) is 84.3 µM (inactive)

Sure, the documented GI50 for `CC(=O)n1nnc2ccc([N+](=O)[O-])cc21` is > 100 µM (inactive)

Sure, the documented GI50 for `CCOC(=O)/C(=C/c1ccc(N(C)C)cc1)N(CC)CC` is > 100 µM (inactive)

Sure, the documented GI50 for Cc1c2n(c(=O)[nH]c1=O)C1OC(CO)C(O2)C1O (stereo not given) is > 100 µM (inactive)

Sure, the documented GI50 for COC(=O)C1C(=O)O[C@@H](c2ccc(OC)cc2OC)C1C(=O)OC (stereo not given in full) is > 100 µM (inactive)

Sure, the documented GI50 for `COC(=O)[C@]12CC[C@H]3CN(C(=O)OCc4ccccc4)[C@H]([C@H]31)[C@H](c1ccccc1)N2` is > 100 µM (inactive)

Sure, the documented GI50 for `C[n+]1c(-c2ccc(/C=N/NC(=O)c3ccc(C(=O)N/N=C/c4ccc(-c5cn6ccccc6[n+]5C)cc4)cc3)cc2)cn2ccccc21` is > 100 µM (inactive)

Sure, the documented GI50 for `Cc1cccc(NC(=O)C(=O)C2C(=O)NC(=O)NC2=O)c1C` is > 100 µM (inactive)

Sure, the documented GI50 for `CCOC(=O)N/N=C(/N)Cc1ccccc1` is > 100 µM (inactive)

Sure, the documented GI50 for Cc1c(/N=N/c2ccc(Cl)cc2)c(C)n(C2OC(CO)C(O)C(O)C2O)c(=S)c1C#N (stereo not given) is 37.4 µM (inactive)

Sure, the documented GI50 for `C=CNC(=O)NC(=O)CSc1nc(=O)c(-c2ccccc2NC(=O)C(F)(F)F)n[nH]1` is 47.6 µM (inactive)

Sure, the documented GI50 for O=C(Nc1ccccc1SC(/C=C/NNC1=NN=C(c2ccccc2)C(c2ccccc2)N1)c1ccccc1)c1ccc(Cl)cc1Cl (stereo not given) is 49.3 µM (inactive)

Sure, the documented GI50 for `C/C(=N\Nc1nc2ccccc2s1)c1ncccn1` is 0.103 µM (active)

Sure, the documented GI50 for COc1ccc(C2C=C(c3ccccc3)Nc3nnnn32)cc1 (stereo not given) is 31.7 µM (inactive)

====

For each of the compounds below, state its GI50.
system: SF-268; assay: NCI tumour cell line growth inhibition, 48 h
The source made the active and inactive calls. No stated cut-off is given here; in the data, active = GI50 up to about 1.1 µM and inactive = higher.

Sure, the documented GI50 for `COC(=O)[C@]12CC[C@H]3CN(C(=O)OCc4ccccc4)[C@H]([C@H]31)[C@H](c1ccccc1)N2` is > 100 µM (inactive)

Sure, the documented GI50 for `Nc1n[nH]c2c(C(=O)Nc3ccc(Cl)cc3)c(N)n(N)c(=O)c12` is > 100 µM (inactive)

Sure, the documented GI50 for CCCNC(=O)C(C)C1CCC2(C)C=CC(=O)C(C)=C2C1O (stereo unspecified) is > 100 µM (inactive)

Sure, the documented GI50 for `CN=C(n1ccnc1)n1ccnc1` is > 100 µM (inactive)

Sure, the documented GI50 for C=C(C)COc1ccc2c(c1)CCC1C2CCC2(C)C(=O)/C(=N/O)CC12 (stereo unspecified) is 3.81 µM (inactive)

Sure, the documented GI50 for `O=C(/C=C/c1ccccc1)Oc1cccc(O)c1` is 15.5 µM (inactive)

Sure, the documented GI50 for CC1=C(c2ccc(C)cc2)NC(=S)C(C)C(c2ccc(C)cc2)=N1 (stereo unspecified) is > 100 µM (inactive)

Sure, the documented GI50 for CC(C)C1=CC2=C(C(=O)C1=O)C13CCCC(C)(C)C1CC2OC3=O (stereo unspecified) is 22 µM (inactive)

Sure, the documented GI50 for `N#Cc1ccccc1C(Cl)(Cl)c1cnccn1` is 52.5 µM (inactive)

Sure, the documented GI50 for `CC(C)c1nccn1Cc1ccc(Cl)cc1Cl` is 76.9 µM (inactive)

Sure, the documented GI50 for `O=C(Nc1nc2ncn(CCO)c2c(=O)[nH]1)c1ccccc1` is > 100 µM (inactive)

Sure, the documented GI50 for NC(=O)c1[nH]nc(C2OC(CO)C(O)C2O)c1O (stereo unspecified) is 4.57 µM (inactive)

Sure, the documented GI50 for `C1CSCCSCCCSCCSCCCSCCSCCCSCCSC1` is > 100 µM (inactive)

Sure, the documented GI50 for COC(=O)C1=C(C)N(NC(=O)Nc2ccccc2)C2(N)N(NC(=O)Nc3ccccc3)C(C)=C(C(=O)OC)C12C(=O)OC (stereo unspecified) is > 100 µM (inactive)

Sure, the documented GI50 for Cc1cc(O)nc(NNC(C#N)c2ccc(O)cc2)n1 (stereo unspecified) is > 100 µM (inactive)

Sure, the documented GI50 for `Oc1ccc(-c2nc3ccc4ccccc4c3c3c2CCCC3)c(O)c1` is 22.2 µM (inactive)

====

test system: PC-3; experiment: NCI tumour cell line growth inhibition, 48 h
The source made the active and inactive calls. Rule as the data show it: active = GI50 up to about 1.1 µM and inactive = higher.
For each of the molecules below, state its GI50.

Bench note, PC-3: CC1=CCC2CC1C(C(=O)c1c[nH]c3ccccc13)=NC2(C)C (configuration not stated) , GI50 reads 30.8 µM (inactive)

Bench note, PC-3: `[N-]=[N+]=C1N=CN=C1c1nc[nH]n1` , GI50 reads > 100 µM (inactive)

Bench note, PC-3: `O=C(CCCCCCCCC(=O)N1C(=O)CC(=O)N(c2ccc(Cl)cc2)C1=S)N1C(=O)CC(=O)N(c2ccc(Cl)cc2)C1=S` , GI50 reads 57.1 µM (inactive)

Bench note, PC-3: `Oc1ccc2ccccc2c1OCc1nnc(CCCCCCCCc2nnc(COc3c(O)ccc4ccccc34)o2)o1` , GI50 reads > 100 µM (inactive)

Bench note, PC-3: `CCOC(=O)N/N=C(/N)Cc1ccccc1` , GI50 reads > 100 µM (inactive)

Bench note, PC-3: Cn1cncc1CC1COC(=O)C1C(O)c1ccccc1 (configuration not stated) , GI50 reads > 100 µM (inactive)

Bench note, PC-3: C=C1C2CC[C@@](C)(O)C2[C@H]2OC(=O)C(=C)[C@@H]2C[C@H]1O (some centres not stated) , GI50 reads 34.4 µM (inactive)

Bench note, PC-3: `COC(=O)[C@]12CC[C@H]3CN(C(=O)OCc4ccccc4)[C@H]([C@H]31)[C@H](c1ccccc1)N2` , GI50 reads 43.2 µM (inactive)

Bench note, PC-3: CN(C)/C=N/CC(O)c1ccccc1 (configuration not stated) , GI50 reads > 100 µM (inactive)

Bench note, PC-3: `COc1ccc(NC(=O)C(C#N)=C(SC)SC)cc1` , GI50 reads > 100 µM (inactive)

Bench note, PC-3: NC(=O)c1[nH]nc(C2OC(CO)C(O)C2O)c1O (configuration not stated) , GI50 reads 3.02 µM (inactive)

Bench note, PC-3: CCC(Sc1cc(Cl)c(C)cc1S(=O)(=O)Nc1nc(N)nc(N(C)C)n1)C(=O)O (configuration not stated) , GI50 reads > 10 µM (inactive)

Bench note, PC-3: `CN(C)c1ccc(/C=C/c2ccnc3ccc4ccccc4c23)cc1` , GI50 reads 92.5 µM (inactive)

Bench note, PC-3: C[As](C)SCC(NC(=O)CCC(N)C(=O)O)C(=O)NCC(=O)O.c1ccncc1 (configuration not stated) , GI50 reads 0.268 µM (active)

Bench note, PC-3: `O=C(CN1CCN(c2ccccc2)CC1)c1ccc2[nH]c(=O)oc2c1` , GI50 reads > 100 µM (inactive)

Bench note, PC-3: `COc1ccc2cc(CN3CCC(C4CCN(Cc5ccc6cc(OC)ccc6c5)CC4)CC3)ccc2c1` , GI50 reads 15.8 µM (inactive)

Bench note, PC-3: `O=C1C(=O)c2c(oc(=O)c3ccccc23)-c2ccccc21` , GI50 reads > 25 µM (inactive)

Bench note, PC-3: `C=C(Br)CN(CC(=C)Br)C(C)=O` , GI50 reads 81.8 µM (inactive)

Bench note, PC-3: `O=C(O[C@H](/C=C/c1ccccc1)P1(=O)N(Cc2ccccc2)[C@H]2CCCC[C@@H]2N1Cc1ccccc1)c1ccccc1` , GI50 reads 3.58 µM (inactive)

Bench note, PC-3: `CC/C=C/C[C@H](O[Si](C)(C)C(C)(C)C)[C@H]1C[C@H]2O[C@H]([C@@H](O)C#C[Si](C)(C)C)C[C@H]2O1` , GI50 reads 12.9 µM (inactive)

Bench note, PC-3: CSc1nc2c(c(=O)n1C)N=C(c1ccc(Cl)cc1)CC(c1ccccc1)N2 (configuration not stated) , GI50 reads 24.3 µM (inactive)

Bench note, PC-3: `CCOC(=O)CCc1c(C(=O)OCC)[nH]c(/C=C2/NC(=O)C(C)=C2CC)c1C` , GI50 reads 22.1 µM (inactive)

Bench note, PC-3: `COc1cc([C@@H]2c3cc4c(cc3[C@@H](Nc3ccc(Cl)cc3C(=O)c3ccccc3Cl)[C@H]3COC(=O)[C@H]23)OCO4)cc(OC)c1OC` , GI50 reads 0.16 µM (active)

Bench note, PC-3: CCC(C)C1NC(=O)C(NC(=O)C(CC(C)C)N(C)C(=O)[C@@H]2CC(O)CN2C(=O)[C@H](C)O)C(C)OC(=O)[C@H](Cc2ccc(OC)cc2)N(C)C(=O)[C@@H]2CCCN2C(=O)[C@H](CC(C)C)NC(=O)C(C)C(=O)[C@H](C(C)C)OC(=O)CC1O (some centres not stated) , GI50 reads 0.252 µM (active)

Bench note, PC-3: `O=C(NS(=O)(=O)OCC(Cl)(Cl)Cl)SCCC(F)(F)C(F)(F)C(F)(F)C(F)(F)C(F)(F)C(F)(F)F` , GI50 reads 16.5 µM (inactive)

Bench note, PC-3: `COc1ccc(OC)c(NS(=O)(=O)c2ccc3nc(C)n(NS(=O)(=O)c4cc(OC)ccc4OC)c(=O)c3c2)c1` , GI50 reads 78.9 µM (inactive)

Bench note, PC-3: `O=c1c2ccccc2n2n1Cc1ccccc1C2` , GI50 reads > 100 µM (inactive)

Bench note, PC-3: `Nc1ccc(-c2nn3c(COc4ccc(Cl)cc4)nnc3s2)cc1` , GI50 reads 88.7 µM (inactive)

Bench note, PC-3: `Oc1ccc(-c2nc3ccc4ccccc4c3c3c2CCCC3)c(O)c1` , GI50 reads 21.6 µM (inactive)

Bench note, PC-3: CC(C)[Si]1(C(C)C)OCC2OC(n3ccc(=O)[nH]c3=O)C(O)(CO)C2O[Si](C(C)C)(C(C)C)O1 (configuration not stated) , GI50 reads 13 µM (inactive)

Bench note, PC-3: `NCCSc1nc2ccccc2c(=O)n1-c1ccccc1` , GI50 reads 27.9 µM (inactive)

Bench note, PC-3: `N#Cc1c(N)c(-c2ccc(Cl)cc2)c(F)c2ccccc12` , GI50 reads > 100 µM (inactive)
